- Test system: Escherichia coli TOP10;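 also: peptides expressed intracellularly from a pBAD plasmid library in pooled LB shake-flask culture, induced with 0.3% L-arabinose, DNA abundance read by NGS, three biological replicates, DESeq2 with apeglm shrinkage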
- Measurement protocol: shrunken log2 fold change of peptide-encoding DNA abundance (4.5 h post-induction vs induction); higher = less antimicrobial activity (less host growth inhibition)
- Study conditions: time post-induction: 4.5 h; library: site-saturation at positions 5, 18, 19, 20
Answer 0 if shrunken log2 fold change is under -0.04, and 1 if it is -0.04 or more.

1) RRIRKRPPRLPRPRPRPPFDPRP
1
2) RRIRNRPPRLPRPRPRPMRIPRP
1
3) RRIRFRPPRLPRPRPRPIMHPRP
0
4) RRIRFRPPRLPRPRPRPHNMPRP
0
5) RRIRCRPPRLPRPRPRPVCQPRP
0
6) RRIRGRPPRLPRPRPRPDPIPRP
1
7) RRIRYRPPRLPRPRPRPSNCPRP
0
8) RRIRRRPPRLPRPRPRPNYSPRP
0
9) RRIRDRPPRLPRPRPRPFLHPRP
1
10) RRIRLRPPRLPRPRPRPFIIPRP
0
11) RRIRYRPPRLPRPRPRPAHRPRP
1
12) RRIRERPPRLPRPRPRPYRCPRP
0
13) RRIRGRPPRLPRPRPRPKNLPRP
1
14) RRIRKRPPRLPRPRPRPLKYPRP
1
15) RRIRHRPPRLPRPRPRPWKNPRP
0
16) RRIRYRPPRLPRPRPRPTQKPRP
0
17) RRIRYRPPRLPRPRPRPHNTPRP
0
18) RRIRIRPPRLPRPRPRPHHPPRP
0
19) RRIRLRPPRLPRPRPRPQWTPRP
1
20) RRIRARPPRLPRPRPRPSPGPRP
1
21) RRIRIRPPRLPRPRPRPIETPRP
0
22) RRIRPRPPRLPRPRPRPMTSPRP
1
23) RRIRRRPPRLPRPRPRPNRFPRP
1
24) RRIRMRPPRLPRPRPRPVCNPRP
0
25) RRIRGRPPRLPRPRPRPQIRPRP
1
26) RRIRARPPRLPRPRPRPYCIPRP
0
27) RRIRHRPPRLPRPRPRPKVNPRP
0
28) RRIRIRPPRLPRPRPRPDRAPRP
0
29) RRIRQRPPRLPRPRPRPGPMPRP
1
30) RRIRWRPPRLPRPRPRPHCIPRP
0
31) RRIRWRPPRLPRPRPRPPCGPRP
1
32) RRIRNRPPRLPRPRPRPTDHPRP
0
33) RRIRTRPPRLPRPRPRPEDPPRP
1
34) RRIRHRPPRLPRPRPRPNHWPRP
0
35) RRIRERPPRLPRPRPRPWVTPRP
0
36) RRIRGRPPRLPRPRPRPPFHPRP
1
37) RRIRKRPPRLPRPRPRPWCNPRP
0
38) RRIRWRPPRLPRPRPRPCGCPRP
0
